tgt: human CB1 receptor (Homo sapiens)
Sequence (P21554 whole entry): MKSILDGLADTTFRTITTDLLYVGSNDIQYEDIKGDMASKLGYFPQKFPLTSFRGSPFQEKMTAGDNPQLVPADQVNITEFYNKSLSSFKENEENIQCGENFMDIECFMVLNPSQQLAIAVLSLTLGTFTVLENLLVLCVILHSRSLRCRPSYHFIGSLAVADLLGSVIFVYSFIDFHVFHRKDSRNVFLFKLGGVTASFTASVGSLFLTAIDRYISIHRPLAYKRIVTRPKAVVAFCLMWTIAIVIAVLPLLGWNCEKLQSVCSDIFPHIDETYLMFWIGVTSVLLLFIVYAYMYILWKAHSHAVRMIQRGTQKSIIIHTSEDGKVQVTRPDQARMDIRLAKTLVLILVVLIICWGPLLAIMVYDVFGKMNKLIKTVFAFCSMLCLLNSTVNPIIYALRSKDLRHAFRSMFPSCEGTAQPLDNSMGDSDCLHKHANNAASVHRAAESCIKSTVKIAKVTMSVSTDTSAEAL
assay: CB1 calcium mobilization assay
cond: CB1 Calcium assay IC50, against EC80 (100 nM) of CP55,940 in stable human CB1-CHO-RD-HGA16 cells; mean ± SEM
pIC50: −log10 of the molar value.
attribute-measured: pIC50

Worked examples follow.
O=C(Nc1ccc(Cl)cc1)Nc1cccc(-c2ccc[nH]2)c1 [Compound 13]; 6.77 to 6.78
CC(C)(C)OC(=O)n1cccc1-c1cccc(NC(=O)Nc2ccc(Cl)cc2)c1 [Compound 15]; 5.46

// lookup pIC50 for Cn1cccc1-c1cccc(NC(=O)Nc2ccc(Cl)cc2)c1 [Compound 14]
6.77 to 6.78

----------
tgt: UniProtKB P47746
assay: [3H]CP55,940 equilibrium radioligand binding
cond: 1 nM [3H]CP55,940; mouse cerebellar membranes
Label scheme for [3H]CP55,940 Curve-fit top ± S.E.: lower than 200 is no (0), 200 and above is yes (1).

Below, 6 compounds whose answers are already recorded.
O=C(Nc1ccc(Cl)cc1)Nc1cccc(-c2ccoc2)c1; no (0)
O=C(Nc1ccc(Cl)cc1)Nc1cccc(-c2cscn2)c1; yes (1)
Cc1ccc(-c2cccc(NC(=O)Nc3ccc(Cl)cc3)c2)s1; yes (1)
O=C(Nc1ccc(Cl)cc1)Nc1cccc(-c2ncc[nH]2)c1; yes (1)
CC(C)(C)OC(=O)n1cccc1-c1cccc(NC(=O)Nc2ccc(Cl)cc2)c1; no (0)
O=C(Nc1ccc(Cl)cc1)Nc1cccc(-c2ccc[nH]2)c1; yes (1)

// switching to the query compound
Please indicate if the recorded [3H]CP55,940 Curve-fit top ± S.E. for O=C(Nc1ccc(Cl)cc1)Nc1cccc(-c2cncs2)c1 meets or exceeds 200.
no (0)

----------
tgt: CB1 receptor (Mus musculus)
assay: [3H]CP55,940 equilibrium radioligand binding
Property: pEC50; scope: individual compounds
The read-out pEC50 is expressed as -log10 of concentration in moles per litre.

Worked examples follow.
O=C(Nc1ccc(Cl)cc1)Nc1cccc(-c2ccoc2)c1; 5.13
Cc1cc(-c2cccc(NC(=O)Nc3ccc(Cl)cc3)c2)cs1; 5.41
O=C(Nc1ccc(Cl)cc1)Nc1cccc(-c2ncc[nH]2)c1; 4.99
CC(C)(C)OC(=O)n1cccc1-c1cccc(NC(=O)Nc2ccc(Cl)cc2)c1; 4.83
O=C(Nc1ccc(Cl)cc1)Nc1cccc(-c2cncs2)c1; 5.19

// lookup pEC50 for O=C(Nc1ccc(Cl)cc1)Nc1cccc(-c2nccs2)c1
5.29

// lookup pEC50 for O=C(Nc1ccc(Cl)cc1)Nc1cccc(-c2cccs2)c1
5.24

// lookup pEC50 for O=C(Nc1ccc(Cl)cc1)Nc1cccc(-c2ccc[nH]2)c1
5.86

// lookup pEC50 for Cc1ccc(-c2cccc(NC(=O)Nc3ccc(Cl)cc3)c2)s1
4.88

// lookup pEC50 for O=C(Nc1ccc(Cl)cc1)Nc1cccc(-c2ccsc2)c1
5.34

// lookup pEC50 for O=C(Nc1ccc(Cl)cc1)Nc1cccc(-c2cccc(N3CCCC3)n2)c1 [Compound 1, reference compound]
5.69

// lookup pEC50 for O=C(Nc1ccc(Cl)cc1)Nc1cccc(-c2cscn2)c1
4.97

// lookup pEC50 for Cn1cccc1-c1cccc(NC(=O)Nc2ccc(Cl)cc2)c1
5.25

----------
tgt: CB1 receptor (Mus musculus)
assay: [3H]CP55,940 equilibrium radioligand binding
cond: 1 nM [3H]CP55,940; mouse cerebellar membranes
attribute-measured: [3H]CP55,940 Curve-fit top ± S.E.

Worked examples follow.
O=C(Nc1ccc(Cl)cc1)Nc1cccc(-c2nccs2)c1; 134.2 ± 4.47
Cc1cc(-c2cccc(NC(=O)Nc3ccc(Cl)cc3)c2)cs1; 226.0 ± 5.82
Cn1cccc1-c1cccc(NC(=O)Nc2ccc(Cl)cc2)c1; 164.5 ± 8.61
O=C(Nc1ccc(Cl)cc1)Nc1cccc(-c2ccsc2)c1; 264.6 ± 9.81

Now for the compound whose [3H]CP55,940 Curve-fit top ± S.E. we want.
// lookup [3H]CP55,940 Curve-fit top ± S.E. for O=C(Nc1ccc(Cl)cc1)Nc1cccc(-c2cccs2)c1
199.8 ± 8.78

----------
tgt: CB1 receptor (Mus musculus, UniProt P47746)
Sequence (P47746 whole entry): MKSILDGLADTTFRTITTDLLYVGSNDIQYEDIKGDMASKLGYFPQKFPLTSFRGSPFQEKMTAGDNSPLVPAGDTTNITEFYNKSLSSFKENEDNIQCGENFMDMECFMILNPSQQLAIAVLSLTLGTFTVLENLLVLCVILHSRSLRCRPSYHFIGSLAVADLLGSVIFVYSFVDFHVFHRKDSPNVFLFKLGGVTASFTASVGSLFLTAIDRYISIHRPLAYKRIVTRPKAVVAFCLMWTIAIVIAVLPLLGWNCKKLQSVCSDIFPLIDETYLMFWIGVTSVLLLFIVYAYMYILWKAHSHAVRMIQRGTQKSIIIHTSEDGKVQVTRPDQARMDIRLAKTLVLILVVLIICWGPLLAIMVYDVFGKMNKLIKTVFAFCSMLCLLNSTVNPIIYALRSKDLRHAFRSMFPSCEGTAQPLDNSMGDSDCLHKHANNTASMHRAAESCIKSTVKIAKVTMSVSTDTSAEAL
assay: [3H]CP55,940 saturation binding in presence of allosteric modulator
cond: Bmax of the radioligand at 10 μM of test compound; vehicle 1.56 ± 0.09
attribute-measured: [3H]CP55,940 Bmax ± S.E. (pmol/mg)
The reply should be a number in pmol/mg, with the unit left off.

Worked examples follow.
O=C(Nc1ccc(Cl)cc1)Nc1cccc(-c2cncs2)c1; 3.57
Cc1cc(-c2cccc(NC(=O)Nc3ccc(Cl)cc3)c2)cs1; 3.64
O=C(Nc1ccc(Cl)cc1)Nc1cccc(-c2ccc[nH]2)c1; 5.87

// lookup [3H]CP55,940 Bmax ± S.E. for O=C(Nc1ccc(Cl)cc1)Nc1cccc(-c2ccoc2)c1
3.22

// lookup [3H]CP55,940 Bmax ± S.E. for O=C(Nc1ccc(Cl)cc1)Nc1cccc(-c2cccc(N3CCCC3)n2)c1 [Compound 1, reference compound]
4.53

----------
Property: remaining activity at 32 µM; scope: individual compounds
tgt: CB1 receptor (Mus musculus)
assay: [3H]SR141716 equilibrium radioligand binding
cond: 1.5 h, read-out: %[3H]SR141716 Binding ± S.E.
The reply should be a number in %, with the unit left off.

Worked examples follow.
Cc1cc(-c2cccc(NC(=O)Nc3ccc(Cl)cc3)c2)cs1; 73.2
O=C(Nc1ccc(Cl)cc1)Nc1cccc(-c2cccs2)c1; 45.5
Cc1ccc(-c2cccc(NC(=O)Nc3ccc(Cl)cc3)c2)s1; 86.9

Now for the compound whose remaining activity at 32 µM we want.
API: value(readout= remaining activity at 32 µM, system= CB1 receptor (Mus musculus), query= O=C(Nc1ccc(Cl)cc1)Nc1cccc(-c2nccs2)c1 )
37.7

----------
tgt: CB1 receptor (Mus musculus, UniProt P47746)
assay: Agonist-stimulated [35S]GTP-γ-S binding assay in mouse cerebellar membranes
Format: biochemical
attribute-measured: IC50 (µM)
The reply should be a number in µM, with the unit left off.

API: value(readout= IC50, system= CB1 receptor (Mus musculus, UniProt P47746), query= CC(C)(C)OC(=O)n1cccc1-c1cccc(NC(=O)Nc2ccc(Cl)cc2)c1 )
3.24

----------
tgt: CB1 receptor (Mus musculus, UniProt P47746)
assay: [3H]SR141716 equilibrium radioligand binding
Recorded IC50 determines the label; the label ranges are LOW: < 10 µM; MEDIUM: ≥ 10 µM and < 20 µM; HIGH: ≥ 20 µM

Below, 5 compounds whose answers are already recorded.
Cc1ccc(-c2cccc(NC(=O)Nc3ccc(Cl)cc3)c2)s1; HIGH
Cn1cccc1-c1cccc(NC(=O)Nc2ccc(Cl)cc2)c1; MEDIUM
O=C(Nc1ccc(Cl)cc1)Nc1cccc(-c2cccc(N3CCCC3)n2)c1 [Compound 1, reference compound]; MEDIUM
O=C(Nc1ccc(Cl)cc1)Nc1cccc(-c2ncc[nH]2)c1; HIGH
O=C(Nc1ccc(Cl)cc1)Nc1cccc(-c2cccs2)c1; HIGH

Kindly identify the class of Cc1cc(-c2cccc(NC(=O)Nc3ccc(Cl)cc3)c2)cs1 .
HIGH

Kindly identify the class of O=C(Nc1ccc(Cl)cc1)Nc1cccc(-c2nccs2)c1 .
MEDIUM

Kindly identify the class of O=C(Nc1ccc(Cl)cc1)Nc1cccc(-c2cncs2)c1 .
LOW

Kindly identify the class of CC(C)(C)OC(=O)n1cccc1-c1cccc(NC(=O)Nc2ccc(Cl)cc2)c1 .
LOW

Kindly identify the class of O=C(Nc1ccc(Cl)cc1)Nc1cccc(-c2cscn2)c1 .
HIGH

Kindly identify the class of O=C(Nc1ccc(Cl)cc1)Nc1cccc(-c2ccsc2)c1 .
MEDIUM

Kindly identify the class of O=C(Nc1ccc(Cl)cc1)Nc1cccc(-c2ccoc2)c1 .
MEDIUM

Kindly identify the class of O=C(Nc1ccc(Cl)cc1)Nc1cccc(-c2ccc[nH]2)c1 .
MEDIUM

----------
tgt: CB1 receptor (Mus musculus)
assay: [3H]SR141716 equilibrium radioligand binding
cond: 1.5 h, read-out: %[3H]SR141716 Binding ± S.E.
attribute-measured: remaining activity at 32 µM (%)
The reply should be a number in %, with the unit left off.

Worked examples follow.
CC(C)(C)OC(=O)n1cccc1-c1cccc(NC(=O)Nc2ccc(Cl)cc2)c1 [Compound 15]; 17.2
Cn1cccc1-c1cccc(NC(=O)Nc2ccc(Cl)cc2)c1 [Compound 14]; 41.4
O=C(Nc1ccc(Cl)cc1)Nc1cccc(-c2cccc(N3CCCC3)n2)c1 [Compound 1, reference compound]; 20.4
O=C(Nc1ccc(Cl)cc1)Nc1cccc(-c2ccsc2)c1 [Compound 9]; 20.4
O=C(Nc1ccc(Cl)cc1)Nc1cccc(-c2ccoc2)c1 [Compound 8]; 34.9
O=C(Nc1ccc(Cl)cc1)Nc1cccc(-c2cncs2)c1 [Compound 17]; 50.6
O=C(Nc1ccc(Cl)cc1)Nc1cccc(-c2ncc[nH]2)c1 [Compound 19]; 34.8
O=C(Nc1ccc(Cl)cc1)Nc1cccc(-c2ccc[nH]2)c1 [Compound 13]; 26.6

Now for the compound whose remaining activity at 32 µM we want.
// lookup remaining activity at 32 µM for O=C(Nc1ccc(Cl)cc1)Nc1cccc(-c2cscn2)c1 [Compound 16]
44.3

Every entry's value here was drawn from paper PMC6426682.
